B1: glmS ribozyme (parent)
chain: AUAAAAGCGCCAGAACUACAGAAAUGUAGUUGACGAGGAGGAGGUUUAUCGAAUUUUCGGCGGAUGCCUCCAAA

Variants of: B1
PROTOCOL_DETAILS: self-cleavage kobs at 2500 uM GlcN6P; higher = faster cleavage; RNA array
CONDITION_SUMMARY: with glucosamine-6-phosphate
Variants at the floor of the assay were thinned out.
Outcome label depends on self-cleavage kobs at 2500 uM GlcN6P relative to 0.0002 s⁻¹: at/above gives Condition met, below gives Condition not met.

alteration="A6G A12G A33U A36C" class_label="Condition not met"
alteration="C16G U30G" class_label="Condition not met"
alteration="U30G G40A U56G" class_label="Condition met"
alteration="C16A A39C A42U G51C C61G" class_label="Condition not met"
alteration="G43U G62C C67A" class_label="Condition not met"
alteration="U54A U56G" class_label="Condition met"
alteration="G29U A48U" class_label="Condition not met"
alteration="C16U A48U" class_label="Condition not met"
alteration="C8A A12C A36U G59U" class_label="Condition not met"
alteration="G43A U57A" class_label="Condition not met"
alteration="A14U U45G G60U" class_label="Condition not met"
alteration="U45G U46C" class_label="Condition met"
alteration="U30A A52U" class_label="Condition not met"
alteration="A33U C61U C70U" class_label="Condition not met"
alteration="G29C A48C G62U" class_label="Condition not met"
alteration="C16G U45G" class_label="Condition met"
alteration="C34A G35A C67G C68A C71A" class_label="Condition not met"
alteration="U30C G40A G43A C68A" class_label="Condition not met"
